# measurementNotes: In vitro pH of compositions prepared with organic acids (Table 1)
# Format: physicochemical
# runConditions: composition prepared with the organic acid
# Description: Compositions were prepared with the following organic acids listed in Table 1, and pH values were measured.
readoutLabel: In vitro pH

// worked examples, In vitro pH included
O=C(O)/C=C/c1ccccc1 [trans-Cinnamic, trans-cinnamic acid] | 4.35
COc1cccc(C=CC(=O)O)c1 | 4.49
O=C(O)C=Cc1ccc(Cl)cc1 | 6.34
COc1ccc(C=CC(=O)O)cc1 | 5.37
O=C(O)c1cccnc1 | 3.68
O=C(O)/C=C/c1cccc(O)c1 | 3.95

a = O=C(O)C(O)c1ccccc1 (racemic)
b = Cc1ccc(C=CC(=O)O)cc1
c = Nc1ccc(C(=O)O)cc1
# rank_down: sort by In vitro pH, max first Order the labels as requested and give them as your answer.
b, c, a
(b: 6.13, c: 4.21, a: 2.42)
